Reference for the values: ChEMBL document CHEMBL5120880

# Test system: Staphylococcus aureus
# TEST_NAME: Antimicrobial activity against Staphylococcus aureus KCTC 1621 assessed as minimal inhibitory concentration incubated for 18 hrs
# Type: functional
Peptide text beside a SMILES is read from it.
The entries below come with measured MIC values attached.

Known MIC results, listed for orientation:
The recorded MIC for `CC(=O)NCCNc1nc(NCC(N)=O)nc(N(Cc2ccccc2)Cc2ccccc2)n1` is > 128 µg/mL

The recorded MIC for CC(=O)N[C@@H](CCCCN)C(=O)N[C@@H](Cc1c[nH]c2ccccc12)C(=O)N[C@@H](CCCCN)C(=O)N[C@@H](Cc1c[nH]c2ccccc12)C(N)=O (Ac-KWKW-NH2) is > 128 µg/mL

The recorded MIC for `CC(=O)NCCNc1nc(NCC(=O)NCCNc2nc(NCC(=O)NCCNc3nc(NCC(N)=O)nc(N(Cc4ccccc4)Cc4ccccc4)n3)nc(N(CCCN)CCCN)n2)nc(N(Cc2ccccc2)Cc2ccccc2)n1` is 64 µg/mL

// moving on: another record for MIC
The recorded MIC for `CC(=O)NCCNc1nc(NCC(N)=O)nc(N(CCCN)CCCN)n1` is > 128 µg/mL

====

# STUDY_SYSTEM: Enoyl-[acyl-carrier-protein] reductase [NADH] FabI (Escherichia coli K-12)
# Sequence (P0AEK4 whole entry): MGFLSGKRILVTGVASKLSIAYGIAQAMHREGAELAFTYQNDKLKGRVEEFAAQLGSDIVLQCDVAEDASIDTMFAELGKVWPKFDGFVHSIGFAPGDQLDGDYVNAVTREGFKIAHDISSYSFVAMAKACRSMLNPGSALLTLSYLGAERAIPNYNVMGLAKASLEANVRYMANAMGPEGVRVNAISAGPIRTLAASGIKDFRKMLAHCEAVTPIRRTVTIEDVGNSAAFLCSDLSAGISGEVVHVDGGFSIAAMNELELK
# TEST_NAME: Inhibition of Escherichia coli […] assessed as measuring NADH consumption rate
MEASURED_ENDPOINT: IC50

The recorded IC50 for `Cc1c(CN(C)C(=O)/C=C/c2cnc3c(c2)CC[C@@H](N)C(=O)N3)oc2ccccc12.Cl` is < 10 nM

====

The entries below come with measured MIC values attached.
# Test system: Staphylococcus aureus
# TEST_NAME: Antibacterial activity against Staphylococcus aureus MRSA assessed as minimal inhibitory concentration incubated for 24 hrs
# Type: functional
Numeric answer only, unit µg/mL assumed.

Known MIC results, listed for orientation:
The recorded MIC for `CCCCCCCCCCCCNC(=O)[C@@H](N)c1ccccc1` is 15.6

The recorded MIC for `CCCCCCCCCCCCCCCCNC(=O)[C@@H](N)Cc1ccccc1` is 1250

The recorded MIC for `CCCCCCCCNC(=O)[C@@H](N)Cc1ccccc1` is 52

Continuing:
The recorded MIC for `CCCCCCCCCCCCNC(=O)[C@@H](N)Cc1ccccc1` is 16.6

The recorded MIC for `CCCCCCCCCCCCNC(=O)[C@H](N)Cc1ccccc1` is 20

The recorded MIC for C#Cc1cccc(NC(=O)[C@@H](N)C(C)CC)c1 (stereo partly specified) is 62.4

====

# Test system: Pseudomonas aeruginosa
# TEST_NAME: Antimicrobial activity against Pseudomonas aeruginosa KCTC 1637 assessed as minimal inhibitory concentration incubated for 18 hrs
# Type: functional
Peptide text beside a SMILES is read from it.
The entries below come with measured MIC values attached.

Known MIC results, listed for orientation:
The recorded MIC for CC(=O)N[C@@H](Cc1c[nH]c2ccccc12)C(=O)N[C@@H](CCCCN)C(=O)N[C@@H](Cc1c[nH]c2ccccc12)C(N)=O (Ac-Trp-Lys-Trp-NH2) is > 128 µg/mL

The recorded MIC for `CC(=O)NCCNc1nc(NCC(=O)NCCNc2nc(NCC(=O)NCCNc3nc(NCC(=O)NCCNc4nc(NCC(N)=O)nc(N(Cc5ccccc5)Cc5ccccc5)n4)nc(N(CCCN)CCCN)n3)nc(N(Cc3ccccc3)Cc3ccccc3)n2)nc(N(CCCN)CCCN)n1` is 16 µg/mL

The recorded MIC for CC(=O)N[C@@H](CCCCN)C(=O)N[C@@H](Cc1c[nH]c2ccccc12)C(N)=O (Ac-Lys-Trp-NH2) is 128 µg/mL

The recorded MIC for `CC(=O)NCCNc1nc(NCC(N)=O)nc(N(Cc2ccccc2)Cc2ccccc2)n1` is > 128 µg/mL

Continuing:
The recorded MIC for CC(=O)N[C@@H](CCCCN)C(=O)N[C@@H](Cc1c[nH]c2ccccc12)C(=O)N[C@@H](CCCCN)C(=O)N[C@@H](Cc1c[nH]c2ccccc12)C(N)=O (Ac-KWKW-NH2) is > 128 µg/mL

The recorded MIC for CC(=O)N[C@@H](CCCCN)C(=O)N[C@@H](Cc1c[nH]c2ccccc12)C(=O)N[C@@H](CCCCN)C(N)=O (Ac-Lys-Trp-Lys-NH2) is 128 µg/mL
